Numbers sourced from paper PMC12736255.

test system: M14; test: NCI-60 single-dose screen; format: cell-based; conditions: Homo sapiens; M14, 10^–5 M; read-out: GI (%)
Provide the reported inhibition at 10 µM of each item.
Entry rule: numbers only, all in %.

// recorded inhibition at 10 µM for O=C1C(Nc2ccc(I)cc2)=CC(c2ccc(O)c(O)c2)N1c1ccc(I)cc1 (centres unmarked) : 99

Item: COc1ccc(C2C=C(Nc3ccc(I)cc3)C(=O)N2c2ccc(I)cc2)cc1OC (centres unmarked) | inhibition at 10 µM: 0

The reported inhibition at 10 µM of the molecule O=C1C(Nc2ccc(I)cc2)=CC(c2ccc3c(c2)OCO3)N1c1ccc(I)cc1 (centres unmarked) was 5

Lab note: O=C1C(Nc2ccc(I)cc2)=CC(c2ccc(Br)cc2)N1c1ccc(I)cc1 (centres unmarked) gave inhibition at 10 µM of 0

Entry O=C1C(Nc2ccc(I)cc2)=CC(c2cc(C(F)(F)F)cc(C(F)(F)F)c2)N1c1ccc(I)cc1 (centres unmarked) — recorded inhibition at 10 µM = 0

* * *

test system: MDA-MB-231/ATCC; experiment: NCI-60 single-dose screen; assay type: cell-based; conditions: Homo sapiens, 10^–5 M, read-out: GI (%)
For each entry below, report its inhibition at 10 µM value.
# unit: % | format: bare number

inhibition at 10 µM value, target or system MDA-MB-231/ATCC, for COc1ccccc1C1C=C(Nc2ccc(I)cc2)C(=O)N1c1ccc(I)cc1 (centres unmarked) : 25

Measured inhibition at 10 µM (MDA-MB-231/ATCC), entry O=C1C(Nc2ccc(I)cc2)=CC(c2cc(C(F)(F)F)cc(C(F)(F)F)c2)N1c1ccc(I)cc1 (centres unmarked) : 42

inhibition at 10 µM on MDA-MB-231/ATCC for O=C1C(Nc2ccc(I)cc2)=CC(c2ccc3c(c2)OCO3)N1c1ccc(I)cc1 (centres unmarked) is 0

MDA-MB-231/ATCC inhibition at 10 µM of O=C1C(Nc2ccc(I)cc2)=CC(c2ccc(O)c(O)c2)N1c1ccc(I)cc1 (centres unmarked) is 42

The reported MDA-MB-231/ATCC inhibition at 10 µM of O=C1C(Nc2ccc(I)cc2)=CC(c2ccccc2)N1c1ccc(I)cc1 (centres unmarked) is 0

Reading of inhibition at 10 µM for O=C1C(Nc2ccc(I)cc2)=CC(c2ccc(C(F)(F)F)cc2)N1c1ccc(I)cc1 (centres unmarked) with MDA-MB-231/ATCC: 62

The compound O=C1C(Nc2ccc(I)cc2)=CC(c2ccc(O)cc2)N1c1ccc(I)cc1 (centres unmarked) on MDA-MB-231/ATCC: inhibition at 10 µM was 44

Test item O=C1C(Nc2ccc(I)cc2)=CC(c2ccc(Br)cc2)N1c1ccc(I)cc1 (centres unmarked) ; MDA-MB-231/ATCC; reported inhibition at 10 µM was 0

Case COc1ccc(C2C=C(Nc3ccc(I)cc3)C(=O)N2c2ccc(I)cc2)cc1OC (centres unmarked) , MDA-MB-231/ATCC, inhibition at 10 µM recorded as 0

Field inhibition at 10 µM (system: MDA-MB-231/ATCC) for entry O=C1C(Nc2ccc(I)cc2)=CC(c2ccc(F)cc2)N1c1ccc(I)cc1 (centres unmarked) = 6

Recorded inhibition at 10 µM for O=C1C(Nc2ccc(I)cc2)=CC(c2ccc(Cl)cc2)N1c1ccc(I)cc1 (centres unmarked) on MDA-MB-231/ATCC was 5

Record COc1cc(OC)c(C2C=C(Nc3ccc(I)cc3)C(=O)N2c2ccc(I)cc2)cc1OC (centres unmarked) ; system MDA-MB-231/ATCC; inhibition at 10 µM = 0

Fill in: MDA-MB-231/ATCC inhibition at 10 µM for O=C1C(Nc2ccc(I)cc2)=CC(c2ccco2)N1c1ccc(I)cc1 (centres unmarked) = 11

Record N#Cc1ccc(C2C=C(Nc3ccc(I)cc3)C(=O)N2c2ccc(I)cc2)cc1 (centres unmarked) / MDA-MB-231/ATCC, inhibition at 10 µM recorded as 100

* * *

system: ACHN; assay: NCI-60 single-dose screen; assay type: cell-based; details: Homo sapiens, 10^–5 M, read-out: GI (%)
Provide the reported inhibition at 10 µM of each item.
Entry rule: numbers only, all in %.

For this molecule ( O=C1C(Nc2ccc(I)cc2)=CC(c2ccc3c(c2)OCO3)N1c1ccc(I)cc1 (stereo not drawn) ), measured inhibition at 10 µM is 0

Entry N#Cc1ccc(C2C=C(Nc3ccc(I)cc3)C(=O)N2c2ccc(I)cc2)cc1 (stereo not drawn) ; inhibition at 10 µM = 100

Given item O=C1C(Nc2ccc(I)cc2)=CC(c2ccc(Cl)cc2)N1c1ccc(I)cc1 (stereo not drawn) , the value recorded as its inhibition at 10 µM is 21

* * *

Test system: NCI-H460
Experiment: NCI-60 single-dose screen
Assay type: cell-based
Details: Homo sapiens; NCI-H460, 10^–5 M; read-out: GI (%)
Excerpt: In the next step, all synthesized compounds were electronically submitted and accepted for testing to the National Cancer Institute (NCI) platform, for the single dose (10^−5 M) screening against a panel of 60 human tumor cell lines, representing leukemia, melanoma, and cancers of the lung, colon, central nervous system, ovary, kidney, prostate, and breast. The results are summarized in Table 2, with the best values highlighted in red (Figures S1–S14).
readout-name: inhibition at 10 µM (%)
Write it as a number; the unit % goes unstated.

The observed inhibition at 10 µM for COc1ccccc1C1C=C(Nc2ccc(I)cc2)C(=O)N1c1ccc(I)cc1 (stereo not drawn) [3i] when tested with NCI-H460 stands at 9

Entry O=C1C(Nc2ccc(I)cc2)=CC(c2ccco2)N1c1ccc(I)cc1 (stereo not drawn) [3m] : inhibition at 10 µM on NCI-H460 = 0

inhibition at 10 µM on NCI-H460 for COc1ccc(C2C=C(Nc3ccc(I)cc3)C(=O)N2c2ccc(I)cc2)cc1OC (stereo not drawn) [3j] is 0

Here O=C1C(Nc2ccc(I)cc2)=CC(c2ccc(C(F)(F)F)cc2)N1c1ccc(I)cc1 (stereo not drawn) [3e] was tested on NCI-H460, and its inhibition at 10 µM came to 43

For the compound O=C1C(Nc2ccc(I)cc2)=CC(c2ccc(F)cc2)N1c1ccc(I)cc1 (stereo not drawn) [3b] , the measured inhibition at 10 µM on NCI-H460 was 17

Measured on NCI-H460, N#Cc1ccc(C2C=C(Nc3ccc(I)cc3)C(=O)N2c2ccc(I)cc2)cc1 (stereo not drawn) [3l] has a documented inhibition at 10 µM of 40

The observed inhibition at 10 µM for O=C1C(Nc2ccc(I)cc2)=CC(c2ccc3c(c2)OCO3)N1c1ccc(I)cc1 (stereo not drawn) [3n] when tested with NCI-H460 stands at 3

# value of inhibition at 10 µM, NCI-H460, item O=C1C(Nc2ccc(I)cc2)=CC(c2ccc(Cl)cc2)N1c1ccc(I)cc1 (stereo not drawn) [3c] = 7

// returns inhibition at 10 µM for O=C1C(Nc2ccc(I)cc2)=CC(c2ccc(O)cc2)N1c1ccc(I)cc1 (stereo not drawn) [3g] with NCI-H460; value = 69

* * *

test system: SF-539; assay: NCI-60 single-dose screen; format: cell-based; conditions: Homo sapiens; SF-539, 10^–5 M; read-out: GI (%)
readout-name: inhibition at 10 µM (%)
# output: bare number, implied unit %

# inhibition at 10 µM of O=C1C(Nc2ccc(I)cc2)=CC(c2cc(C(F)(F)F)cc(C(F)(F)F)c2)N1c1ccc(I)cc1 (centres unmarked) = 17

Looking up O=C1C(Nc2ccc(I)cc2)=CC(c2ccc3c(c2)OCO3)N1c1ccc(I)cc1 (centres unmarked) , I found its inhibition at 10 µM recorded as 87

Memo: O=C1C(Nc2ccc(I)cc2)=CC(c2ccc(O)c(O)c2)N1c1ccc(I)cc1 (centres unmarked) , reported inhibition at 10 µM: 72

In plain terms, O=C1C(Nc2ccc(I)cc2)=CC(c2ccc(C(F)(F)F)cc2)N1c1ccc(I)cc1 (centres unmarked) has a documented inhibition at 10 µM of 37

In plain terms, COc1cc(OC)c(C2C=C(Nc3ccc(I)cc3)C(=O)N2c2ccc(I)cc2)cc1OC (centres unmarked) has a documented inhibition at 10 µM of 18

* * *

tested on: SW-620; assay: NCI-60 single-dose screen; type: cell-based; conditions: Homo sapiens; SW-620, 10^–5 M; read-out: GI (%)
Kindly state inhibition at 10 µM for each of the entries shown.

get_value(item= O=C1C(Nc2ccc(I)cc2)=CC(c2cc(C(F)(F)F)cc(C(F)(F)F)c2)N1c1ccc(I)cc1 (centres unmarked) , readout=inhibition at 10 µM) returns 20%

inhibition at 10 µM measured on COc1cc(OC)c(C2C=C(Nc3ccc(I)cc3)C(=O)N2c2ccc(I)cc2)cc1OC (centres unmarked) = 0%

According to the records, this compound O=C1C(Nc2ccc(I)cc2)=CC(c2ccc(C(F)(F)F)cc2)N1c1ccc(I)cc1 (centres unmarked) displays inhibition at 10 µM of 47%

Short answer for O=C1C(Nc2ccc(I)cc2)=CC(c2ccc(F)cc2)N1c1ccc(I)cc1 (centres unmarked) : inhibition at 10 µM was 24%

inhibition at 10 µM in this record for O=C1C(Nc2ccc(I)cc2)=CC(c2ccccc2)N1c1ccc(I)cc1 (centres unmarked) : 0%

inhibition at 10 µM for N#Cc1ccc(C2C=C(Nc3ccc(I)cc3)C(=O)N2c2ccc(I)cc2)cc1 (centres unmarked) is 50%

Just so you know, measured inhibition at 10 µM for O=C1C(Nc2ccc(I)cc2)=CC(c2ccc(Br)cc2)N1c1ccc(I)cc1 (centres unmarked) came out at 16%

For record O=C1C(Nc2ccc(I)cc2)=CC(c2ccc(O)c(O)c2)N1c1ccc(I)cc1 (centres unmarked) the listed inhibition at 10 µM is 100%

inhibition at 10 µM recorded for this compound, COc1ccc(C2C=C(Nc3ccc(I)cc3)C(=O)N2c2ccc(I)cc2)cc1OC (centres unmarked) , is 0%

Entry O=C1C(Nc2ccc(I)cc2)=CC(c2ccc(Cl)cc2)N1c1ccc(I)cc1 (centres unmarked) — recorded inhibition at 10 µM = 12%

Kindly note the recorded inhibition at 10 µM for O=C1C(Nc2ccc(I)cc2)=CC(c2ccc(O)cc2)N1c1ccc(I)cc1 (centres unmarked) , which is 56%

Memo: O=C1C(Nc2ccc(I)cc2)=CC(c2ccco2)N1c1ccc(I)cc1 (centres unmarked) , reported inhibition at 10 µM: 16%

Form field inhibition at 10 µM, entry COc1ccccc1C1C=C(Nc2ccc(I)cc2)C(=O)N1c1ccc(I)cc1 (centres unmarked) : 14%

# inhibition at 10 µM (compound: O=C1C(Nc2ccc(I)cc2)=CC(c2ccc3c(c2)OCO3)N1c1ccc(I)cc1 (centres unmarked) ) is 9%
